FYI, the data here is from PubChem BioAssay.

- assay-overview: reduction of polyQ htt aggregates in cells – imaging, exon1htt(103Q)mCFP cells, high-content imaging, primary screen (AID 483);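 note: compound exposure lasted 3 days before fixation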;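 for nuclei count: percent of the per-plate median nuclei count of sample wells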
- condition-context: exon1htt(103Q)mCFP cell line, aggregate imaging, at 2 µM; measured here: cell count, toxicity
endpoint-name: nuclei count
Provide the measurement as a number trailed by its unit.

Worked set:
molecule="CCCC1(C(=O)OCC)NC(c2ccc(N(C)C)cc2)C2C(=O)N(c3ccccc3)C(=O)C21 (stereo not drawn)" experimental_result=92.4%
molecule="Cc1ccc(C2c3c(oc4ccccc4c3=O)C(=O)N2c2nnc(C(C)C)s2)o1 (stereo not drawn)" experimental_result=90.4%

Shift focus to the following entry.
get_value(item= COc1ccccc1CN(Cc1nc2ccccc2c(=O)[nH]1)C(=O)Nc1ccccc1 , readout=nuclei count) returns 87.7%

* * *

- test-target: Alpha-2C adrenergic receptor (Homo sapiens) (UniProt P18825)
- Sequence (P18825 whole entry, looked up): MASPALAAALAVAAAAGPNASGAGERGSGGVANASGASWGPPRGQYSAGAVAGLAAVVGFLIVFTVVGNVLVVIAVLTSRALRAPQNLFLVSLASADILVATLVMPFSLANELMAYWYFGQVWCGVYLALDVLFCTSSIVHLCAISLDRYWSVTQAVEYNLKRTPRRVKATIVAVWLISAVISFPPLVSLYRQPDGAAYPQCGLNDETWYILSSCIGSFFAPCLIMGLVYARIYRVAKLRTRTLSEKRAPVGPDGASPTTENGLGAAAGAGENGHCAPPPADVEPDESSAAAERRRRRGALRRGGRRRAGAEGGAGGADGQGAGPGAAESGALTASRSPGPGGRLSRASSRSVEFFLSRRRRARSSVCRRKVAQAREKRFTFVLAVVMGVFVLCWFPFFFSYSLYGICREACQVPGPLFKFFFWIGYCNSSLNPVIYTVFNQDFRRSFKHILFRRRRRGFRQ
- assay-overview: compounds altering alpha2C-coupled GIRK flux – cell-based, HEK293 alpha2C/GIRK1/2, thallium flux, primary screen (AID 624);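 note: slope of fluorescence ratio to pre-addition baseline per second over 15 to 24 s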
- condition-context: thallium flux BTC fluorescence, at 10 µM, actives lie on both sides
So basically, the class depends on measured slope, and the ranges are LOW: < 0.004; MEDIUM: ≥ 0.004 and < 0.005; HIGH: ≥ 0.005

Previously resolved entries follow.
compound="CN1C(=S)SC(C)(NO)C1(C)C (stereo unspecified)" label=MEDIUM
compound="Cc1ccc(NC(=O)COS(=O)c2ccc(C)cc2)cc1 (stereo unspecified)" label=HIGH
compound="CC(C)(C)NC(=O)CN(C(=O)C1CSC(=O)C1)c1ccc2c(c1)OCCO2 (stereo unspecified)" label=MEDIUM
compound=COc1ccc(Cl)cc1N1CCN(CCNC(=O)Nc2ccccc2C)CC1 label=MEDIUM
compound=CCCCCc1nnc(NC(=O)Cc2cccs2)s1 label=MEDIUM
compound=O=C(c1csc2ccccc12)N1CCCCCC1 label=LOW
compound=O=C(CCCN1C(=O)c2ccccc2C1=O)NCc1cccnc1 label=HIGH
compound=CCOC(=O)Nc1ccc2c(CN3C(=O)NC4(CCCC4)C3=O)cc(=O)oc2c1 label=HIGH

Prompt: Lab note: which band did Cc1cc(C(F)F)n2nc(C(=O)Nc3ccc(S(=O)(=O)N4CCCCCC4)cc3)nc2n1 land in?
Response: MEDIUM

Prompt: Sort into band: COc1cccc(-c2csc3nc[nH]c(=O)c23)c1
Response: LOW

Prompt: Category of O=C(CCNS(=O)(=O)c1ccc(Br)s1)N1CCCCC1 , please.
Response: HIGH

Prompt: Which bin should I file COCC(=O)n1nc(NCc2ccc(OC)cc2)nc1NCc1ccc(OC)cc1 under?
Response: HIGH

Prompt: Quick check: band for O=C(Cn1c(=O)oc2ccccc21)N1CCN(c2ccccc2)CC1
Response: HIGH

Prompt: Class (by measured slope) for O=C1c2ccccc2C(Nc2ccc3nc(-c4cccnc4)[nH]c3c2)N1Cc1ccco1 (stereo unspecified)
Response: HIGH

Prompt: Hi there! Could you help me figure out the category for O=c1/c(=C/c2ccco2)sc2nc(-c3ccccc3Br)nn12 please?
Response: LOW

Prompt: Kindly state the category for this compound: CCOC(=O)c1sc2nc(SCC#N)n(CCCN3CCCC3=O)c(=O)c2c1C
Response: HIGH

Prompt: Please report the category associated with O=C(c1cccs1)N(Cc1ccco1)Cc1cc2ccccc2[nH]c1=O , nothing else.
Response: MEDIUM

* * *

- test-target: Alpha-2C adrenergic receptor (Homo sapiens)
- assay-overview: compounds altering alpha2C-coupled GIRK flux – cell-based, HEK293 alpha2C/GIRK1/2, thallium flux, primary screen (AID 624);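 note: slope of fluorescence ratio to pre-addition baseline per second over 15 to 24 s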
- condition-context: thallium flux BTC fluorescence, at 10 µM, actives lie on both sides
endpoint-name: slope
Please give only the number in your answer, with no unit.

compound="CC1(C)CC(=O)C(C=NC(CCC(N)=O)C(=O)O)=C(O)C1 (stereo not drawn)" experimental_result=0.00504
compound=Cc1ccc(S(=O)(=O)CCC(=O)Nc2ccc3c(c2)OCO3)cc1 experimental_result=0.00603
compound="CCOC(=O)N1CCC(NC(=O)CCC(=O)N2CC(C)Oc3ccc(Cl)cc32)CC1 (stereo not drawn)" experimental_result=0.00486

Lab entry: Alpha-2C adrenergic receptor (Homo sapiens) assay, compound O=S(=O)(c1ccc(F)cc1)N1CCC(N2CCCC2)CC1 , slope = 0.00636

Note to self: slope of CC(C)(C#N)Nn1cnnc1 with Alpha-2C adrenergic receptor (Homo sapiens) was 0.00429

Summary line: CCC(C)NC(=O)CCNS(=O)(=O)c1ccc(Br)cc1 (stereo not drawn) , Alpha-2C adrenergic receptor (Homo sapiens), reported slope = 0.00362

Entry CC(=O)NCCc1ccc(S(=O)(=O)NCc2ccc3c(c2)OCO3)cc1 under Alpha-2C adrenergic receptor (Homo sapiens) had slope of 0.00549

Given the compound CC(C)NC(=O)Nc1cccs1 and test system Alpha-2C adrenergic receptor (Homo sapiens), the measured slope is 0.00565

Sample CC1CCCCN1CCNC(=O)C1CCN(S(=O)(=O)c2cccc3cccnc23)CC1 (stereo not drawn) , system: Alpha-2C adrenergic receptor (Homo sapiens). Its slope is 0.00613

* * *

- test-target: Voltage-gated potassium channel subunit beta-2 (Rattus norvegicus) (UniProt P62483)
- Sequence (P62483 whole entry, looked up): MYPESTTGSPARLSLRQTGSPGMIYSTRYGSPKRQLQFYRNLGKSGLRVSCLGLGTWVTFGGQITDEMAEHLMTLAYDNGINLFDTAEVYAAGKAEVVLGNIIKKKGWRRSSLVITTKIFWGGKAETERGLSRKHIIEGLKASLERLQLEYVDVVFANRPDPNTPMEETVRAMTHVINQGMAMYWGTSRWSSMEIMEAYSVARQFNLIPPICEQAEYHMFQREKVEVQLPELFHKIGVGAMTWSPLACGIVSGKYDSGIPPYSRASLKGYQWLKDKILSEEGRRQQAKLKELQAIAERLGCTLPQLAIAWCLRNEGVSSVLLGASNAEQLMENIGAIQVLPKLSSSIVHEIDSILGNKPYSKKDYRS
- assay-overview: inhibitors of rat Kvbeta2 reductase activity – biochemical, NADPH fluorescence, primary screen (AID 622);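 note: slope of raw intensity against log time taken from 70 to 1610 s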
- condition-context: recombinant KvBeta, 4-cyanobenzaldehyde reduction, at 10 µM, stronger effect = higher value
The entries below are paired with their reported fluorescence slope.
Answer with a number only.

fluorescence slope recorded for this compound, CCOC(=O)c1[nH]c2ccc(C)cc2c1N=C(C)N(C)C , is -0.563

// fluorescence slope value for COc1ccc(S(=O)(=O)NCCSCc2ccco2)cc1Cl : -0.424

Looking up CCOC(=O)c1ccccc1NC(=O)Cn1cnc2c(cnn2-c2ccc(OC)cc2)c1=O , I see its fluorescence slope listed as -0.237

For reference, reported fluorescence slope for CCOC(=O)c1ccccc1NC1CC(=O)N(c2ccccc2C)C1=O (configuration not stated) stands at -0.262

Documented fluorescence slope of Cc1cc(Cl)ccc1OCCCC(=O)N1CCOCC1 : -0.503

Consider Cn1c(C(=O)NCc2cccnc2)cc2sccc21 . Its measured fluorescence slope is -0.436

Lab note: measured fluorescence slope of CCN(C#N)c1nc(NC(C)C)nc(NC(C)C)n1 was -0.316

* * *

- assay-overview: inhibitors of TNFa-induced NFkB p65 translocation, primary screen, imaging, HUVEC, MLSMR starter and 10KST1 sets (AID 438);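 note: compound added about 3h40 before a 20 min TNFalpha stimulation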
- condition-context: HUVEC TNFa-induced p65 nuclear translocation; measured here: nuclei count (cytotoxicity indicator), at 2.08 µM
Please enter satisfied where cell count is greater than or equal to 400, and not satisfied where it is lower.

Examples from the recorded data:
compound=CC(C)N(O)C(=O)NC(C)(C)C label=satisfied
compound=CCCOC(=O)/C(C(N)=NCc1ccccc1)=C(\O)OCCC label=satisfied
compound=Cc1cccc(-n2ncc3c(NCc4cccs4)ncnc32)c1 label=satisfied
compound=CC(C)N(C=O)C1(C(=O)NC2CCCCC2)CCCCC1 label=satisfied
compound=Cc1ccc(N2C(N)=NC(N)=NC23CCCC3)c(C)c1 label=satisfied
compound=Cc1cc(C(=O)Nc2nnc(C(F)(F)F)s2)no1 label="not satisfied"
compound=O=c1cc(CSc2nnc(COc3ccc(Cl)cc3)o2)c2ccccc2[nH]1 label=satisfied
compound=CCc1cccc(NC(=O)CN(C)S(=O)(=O)c2cccc3nsnc23)c1 label="not satisfied"

Prompt: Quick check, cell count >= 400? O=C(c1ccc(Br)cc1)N1CCN(S(=O)(=O)c2ccccc2)CC1
Response: satisfied

Prompt: Given the entry COCCNC(=O)CSc1nc(-c2ccc(OC)c(OC)c2)cc(C(F)(F)F)n1 , answer whether its cell count meets or surpasses 400.
Response: satisfied

Prompt: Answer whether cell count of CCOc1ccccc1-n1c(SCC(=O)NCc2ccco2)nnc1-c1ccncc1 is greater than or equal to 400.
Response: not satisfied

Prompt: // inclusive: cell count at least 400? input: CCOC(=O)c1sc(NC(=O)CNC(=O)Cn2cnc3sc(C)c(C)c3c2=O)nc1C
Response: not satisfied

* * *

- assay-overview: reduction of polyQ htt aggregates in cells – imaging, exon1htt(103Q)mCFP cells, high-content imaging, primary screen (AID 483);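 note: compound exposure lasted 3 days before fixation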
- condition-context: exon1htt(103Q)mCFP cell line, aggregate imaging, at 2 µM; stronger effect = higher value
// label = yes if inhibition of aggregation is not less than -10%, otherwise no

Illustrative cases are given below, each with its answer.
smiles_code=CCOCCn1cnc2sc(C(=O)Nc3nc(C)c(C(=O)OCC)s3)c(C)c2c1=O label=yes
smiles_code=O=C(Nc1ccccc1C(=O)N1CCOCC1)c1cccc(S(=O)(=O)N2CCCC2)c1 label=yes
smiles_code=COc1ccccc1NC(=O)CSc1nnc(-c2ccncc2)o1 label=yes

# next molecule below
Prompt: Kindly determine if inhibition of aggregation recorded for O=C(CSc1nnc(SCc2ccc(Cl)cc2)s1)N1CCN(C(=O)c2ccco2)CC1 is above or exactly -10%.
Response: no
